- System: Bacillus subtilis
- assay comment: Antibacterial activity against Bacillus subtilis assessed as reduction in bacterial growth
- Type: functional

{"structure notation": "O=C(O)c1cn(C2CC2)c2cc(N3CCNCC3)c(F)cc2c1=O", "measured target": "Bacillus subtilis", "readout units": "µg/mL", "MIC": 18}
{"structure notation": "CC1(C)S[C@@H]2[C@H](NC(=O)[C@H](N)c3ccccc3)C(=O)N2[C@H]1C(=O)O", "measured target": "Bacillus subtilis", "readout units": "µg/mL", "MIC": 1.56}
{"structure notation": "CCCCCCCCCCCCCCCc1nnc(S)n1/N=C\\c1cc(OC)c(OC)c(OC)c1", "measured target": "Bacillus subtilis", "readout units": "µg/mL", "MIC": 24.7}
{"structure notation": "COc1ccc(-c2cc(-c3nnn(-c4ccccc4)c3C)no2)cc1", "measured target": "Bacillus subtilis", "readout units": "µg/mL", "MIC": 1.56}

* * *

Measured MIC accompanies every entry in the list below.
- System: Staphylococcus aureus
- assay comment: Antibacterial activity against Staphylococcus aureus assessed as inhibition of bacterial growth by microdilution method
- Assay type: functional

{"molecule": "Fc1cc(-n2cc(COc3cccc4cccnc34)nn2)ccc1N1CCOCC1", "MIC / µg/mL": 50}
{"molecule": "Cc1cc(=O)oc2cc(OCc3cn(-c4ccc(N5CCOCC5)c(F)c4)nn3)ccc12", "MIC / µg/mL": 25}
{"molecule": "CC1(C)S[C@@H]2[C@H](NC(=O)Cc3ccccc3)C(=O)N2[C@H]1C(=O)O [PENICILLIN G]", "MIC / µg/mL": 1.56}
{"molecule": "O=C1COc2cc(Br)ccc2N1Cc1cn(-c2ccc(N3CCOCC3)c(F)c2)nn1", "MIC / µg/mL": 25}
{"molecule": "O=c1cc(OCc2cn(-c3ccc(N4CCOCC4)c(F)c3)nn2)c2ccccc2o1", "MIC / µg/mL": 50}

* * *

Measured diameter of the inhibition zone (DIZ) accompanies every entry in the list below.
- Test system: Escherichia coli
- assay comment: Antibacterial activity against Escherichia coli RCMB 010052 assessed as diameter of inhibition zone incubated for 24 hrs by well diffusion assay
- Assay type: functional
recorded endpoint: diameter of the inhibition zone (DIZ) (mm)

{"structure notation": "Cc1c(C(=O)/C=C/c2c[nH]c3ccccc23)nnn1-c1ccc(-n2nnc(C(=O)/C=C/c3c[nH]c4ccccc34)c2C)cc1", "measured target": "Escherichia coli", "recorded endpoint": "diameter of the inhibition zone (DIZ)", "recorded number": 25}
{"structure notation": "Cc1c(C(=O)/C=C/c2cccnc2)nnn1-c1ccc(-n2nnc(C(=O)/C=C/c3cccnc3)c2C)cc1", "measured target": "Escherichia coli", "recorded endpoint": "diameter of the inhibition zone (DIZ)", "recorded number": 23.7}
{"structure notation": "Cc1c(C(=O)/C=C/c2ccccn2)nnn1-c1ccc(-n2nnc(C(=O)/C=C/c3ccccn3)c2C)cc1", "measured target": "Escherichia coli", "recorded endpoint": "diameter of the inhibition zone (DIZ)", "recorded number": 31.3}
{"structure notation": "Cc1c(-c2cc(-c3ccccn3)nc(S)n2)nnn1-c1ccc(-n2nnc(-c3cc(-c4ccccn4)nc(S)n3)c2C)cc1", "measured target": "Escherichia coli", "recorded endpoint": "diameter of the inhibition zone (DIZ)", "recorded number": 35.2}

* * *

- Tested on: Escherichia coli
- assay comment: Antibacterial activity against Escherichia coli RCMB 010052 assessed as diameter of inhibition zone incubated for 24 hrs by well diffusion assay
- Assay type: functional
Measured diameter of the inhibition zone (DIZ) accompanies every entry in the list below.

{"structure notation": "Cc1c(-c2cc(-c3c[nH]c4ccccc34)nc(S)n2)nnn1-c1ccc(-n2nnc(-c3cc(-c4c[nH]c5ccccc45)nc(S)n3)c2C)cc1", "diameter of the inhibition zone (DIZ), mm": 30.9}
{"structure notation": "Cc1c(-c2cc(-c3c[nH]c4ccccc34)[nH]n2)nnn1-c1ccc(-n2nnc(-c3cc(-c4c[nH]c5ccccc45)[nH]n3)c2C)cc1", "diameter of the inhibition zone (DIZ), mm": 28.4}
{"structure notation": "Cc1c(C(=O)/C=C/c2ccncc2)nnn1-c1ccc(-n2nnc(C(=O)/C=C/c3ccncc3)c2C)cc1", "diameter of the inhibition zone (DIZ), mm": 26.3}
{"structure notation": "Cc1c(-c2cc(-c3c[nH]c4ccccc34)nc(NN)n2)nnn1-c1ccc(-n2nnc(-c3cc(-c4c[nH]c5ccccc45)nc(NN)n3)c2C)cc1", "diameter of the inhibition zone (DIZ), mm": 33.9}

* * *

Measured MIC accompanies every entry in the list below.
- System: Staphylococcus aureus
- assay comment: Antibacterial activity against methicillin-resistant Staphylococcus aureus assessed as reduction in microbial growth incubated for 18 to 24 hrs by serial dilution method
- Type: functional
- measurement setup: time 18-24 hrs

{"molecule": "CN[C@H](CC(C)C)C(=O)N[C@H]1C(=O)N[C@@H](CC(N)=O)C(=O)N[C@H]2C(=O)N[C@H]3C(=O)N[C@H](C(=O)N[C@H](C(=O)O)c4cc(O)cc(O)c4-c4cc3ccc4O)[C@H](O)c3ccc(c(Cl)c3)Oc3cc2cc(c3O[C@@H]2O[C@H](CO)[C@@H](O)[C@H](O)[C@H]2O[C@H]2C[C@](C)(N)[C@H](O)[C@H](C)O2)Oc2ccc(cc2Cl)[C@H]1O", "measured target": "Staphylococcus aureus", "MIC / µg/mL": 0.25}
{"molecule": "COc1c(N2CCN(C(=O)Cn3cc(CN4C(=O)C(=O)c5ccccc54)nn3)C(C)C2)c(F)cc2c(=O)c(C(=O)O)cn(C3CC3)c12 (configuration not stated)", "measured target": "Staphylococcus aureus", "MIC / µg/mL": 0.03}
{"molecule": "COc1c(N2CCN(C(=O)Cn3cc(CN4C(=O)/C(=N/O)c5cc(C)ccc54)nn3)C(C)C2)c(F)cc2c(=O)c(C(=O)O)cn(C3CC3)c12 (configuration not stated)", "measured target": "Staphylococcus aureus", "MIC / µg/mL": 0.03}
{"molecule": "CO/N=C1/C(=O)N(Cc2cn(CC(=O)N3CCN(c4c(F)cc5c(=O)c(C(=O)O)cn(C6CC6)c5c4OC)CC3C)nn2)c2ccc(F)cc21 (configuration not stated)", "measured target": "Staphylococcus aureus", "MIC / µg/mL": 0.03}
{"molecule": "CCO/N=C1/C(=O)N(Cc2cn(CC(=O)N3CCN(c4c(F)cc5c(=O)c(C(=O)O)cn(C6CC6)c5c4OC)CC3C)nn2)c2ccc(F)cc21 (configuration not stated)", "measured target": "Staphylococcus aureus", "MIC / µg/mL": 0.03}
{"molecule": "COc1c(N2CCN(C(=O)Cn3cc(CN4C(=O)C(=O)c5cccc(F)c54)nn3)C(C)C2)c(F)cc2c(=O)c(C(=O)O)cn(C3CC3)c12 (configuration not stated)", "measured target": "Staphylococcus aureus", "MIC / µg/mL": 0.03}
{"molecule": "CCO/N=C1/C(=O)N(Cc2cn(CC(=O)N3CCN(c4c(F)cc5c(=O)c(C(=O)O)cn(C6CC6)c5c4OC)CC3C)nn2)c2ccccc21 (configuration not stated)", "measured target": "Staphylococcus aureus", "MIC / µg/mL": 0.03}
{"molecule": "COc1c(N2CCN(C(=O)Cn3cc(CN4C(=O)/C(=N/O)c5ccccc54)nn3)C(C)C2)c(F)cc2c(=O)c(C(=O)O)cn(C3CC3)c12 (configuration not stated)", "measured target": "Staphylococcus aureus", "MIC / µg/mL": 0.03}
{"molecule": "CCO/N=C1/C(=O)N(Cc2cn(CC(=O)N3CCN(c4c(F)cc5c(=O)c(C(=O)O)cn(C6CC6)c5c4OC)CC3C)nn2)c2ccc(C)cc21 (configuration not stated)", "measured target": "Staphylococcus aureus", "MIC / µg/mL": 0.03}
{"molecule": "CO/N=C1/C(=O)N(Cc2cn(CC(=O)N3CCN(c4c(F)cc5c(=O)c(C(=O)O)cn(C6CC6)c5c4OC)CC3C)nn2)c2c(F)cccc21 (configuration not stated)", "measured target": "Staphylococcus aureus", "MIC / µg/mL": 0.03}
{"molecule": "COc1c(N2CCN(C(=O)Cn3cc(CN4C(=O)C(=O)c5cc(F)ccc54)nn3)C(C)C2)c(F)cc2c(=O)c(C(=O)O)cn(C3CC3)c12 (configuration not stated)", "measured target": "Staphylococcus aureus", "MIC / µg/mL": 0.03}
{"molecule": "COc1c(N2CCNC(C)C2)c(F)cc2c(=O)c(C(=O)O)cn(C3CC3)c12 (configuration not stated)", "measured target": "Staphylococcus aureus", "MIC / µg/mL": 0.12}

* * *

- Test system: Aspergillus flavus
- assay comment: Antifungal activity against Aspergillus flavus assessed as diameter of inhibition zone incubated for 24 hrs by well diffusion assay
- Format: functional

{"structure notation": "Cc1c(-c2cc(-c3c[nH]c4ccccc34)nc(NN)n2)nnn1-c1ccc(-n2nnc(-c3cc(-c4c[nH]c5ccccc45)nc(NN)n3)c2C)cc1", "diameter of the inhibition zone (DIZ), mm": 21.3}
{"structure notation": "Cc1c(C(=O)/C=C/c2ccncc2)nnn1-c1ccc(-n2nnc(C(=O)/C=C/c3ccncc3)c2C)cc1", "diameter of the inhibition zone (DIZ), mm": 18.43}
{"structure notation": "Cc1c(C(=O)/C=C/c2cccnc2)nnn1-c1ccc(-n2nnc(C(=O)/C=C/c3cccnc3)c2C)cc1", "diameter of the inhibition zone (DIZ), mm": 18.03}
{"structure notation": "Cc1c(-c2cc(-c3c[nH]c4ccccc34)nc(S)n2)nnn1-c1ccc(-n2nnc(-c3cc(-c4c[nH]c5ccccc45)nc(S)n3)c2C)cc1", "diameter of the inhibition zone (DIZ), mm": 19.1}
{"structure notation": "Cc1c(-c2cc(-c3c[nH]c4ccccc34)[nH]n2)nnn1-c1ccc(-n2nnc(-c3cc(-c4c[nH]c5ccccc45)[nH]n3)c2C)cc1", "diameter of the inhibition zone (DIZ), mm": 19.5}
{"structure notation": "Cc1c(C(=O)/C=C/c2c[nH]c3ccccc23)nnn1-c1ccc(-n2nnc(C(=O)/C=C/c3c[nH]c4ccccc34)c2C)cc1", "diameter of the inhibition zone (DIZ), mm": 19.2}
{"structure notation": "Cc1c(-c2cc(-c3ccccn3)nc(S)n2)nnn1-c1ccc(-n2nnc(-c3cc(-c4ccccn4)nc(S)n3)c2C)cc1", "diameter of the inhibition zone (DIZ), mm": 24.02}
{"structure notation": "Cc1c(C(=O)/C=C/c2ccccn2)nnn1-c1ccc(-n2nnc(C(=O)/C=C/c3ccccn3)c2C)cc1", "diameter of the inhibition zone (DIZ), mm": 22}
